- EXPERIMENTAL_DETAILS: Permeability of the compound at pH 7.4 by PAMPA
- Format: ADME
REPORTED_PROPERTY: permeability (×10⁻⁶ cm/s)

As a guide, the following entries are already answered.
>  <ENTRY_SMILES>
CCOC(=O)c1c(-c2cccc(OCC)c2)[nH]c2cc(OC)ccc2c1=O

>  <SCALE_UNIT>
×10⁻⁶ cm/s

>  <permeability>
260

$$$$
>  <ENTRY_SMILES>
CCCOc1cccc(-c2[nH]c3cc(OC)ccc3c(=O)c2C(=O)OCC)c1

>  <SCALE_UNIT>
×10⁻⁶ cm/s

>  <permeability>
340

$$$$
>  <ENTRY_SMILES>
CCOC(=O)c1c(-c2cccc(Oc3ccccc3)c2)[nH]c2cc(OC)ccc2c1=O

>  <SCALE_UNIT>
×10⁻⁶ cm/s

>  <permeability>
750

$$$$
>  <ENTRY_SMILES>
CCOC(=O)c1c(-c2cccc(Oc3ccccc3)c2)[nH]c2cc(OC)c(F)cc2c1=O

>  <SCALE_UNIT>
×10⁻⁶ cm/s

>  <permeability>
560

$$$$
>  <ENTRY_SMILES>
CCOC(=O)c1c(-c2cccc(-c3ccccc3)c2)[nH]c2cc(OC)ccc2c1=O

>  <SCALE_UNIT>
×10⁻⁶ cm/s

>  <permeability>
2900

$$$$
>  <ENTRY_SMILES>
COc1cc2[nH]c(-c3cccc(Oc4ccccc4)c3)c(C(=O)OCCCN3CCOCC3)c(=O)c2cc1F

>  <SCALE_UNIT>
×10⁻⁶ cm/s

>  <permeability>
880

$$$$

[a] CCOC(=O)c1c(-c2cccc(Br)c2)[nH]c2cc(OC)c(F)cc2c1=O
[b] CCOC(=O)c1c(-c2cccc(Cl)c2)[nH]c2cc(OC)c(F)cc2c1=O
Req: Given the listed records, identify the one among a and b with higher permeability. # answer = label of selected item
Resp: a

[P] CCOC(=O)c1c(-c2cc(F)cc(OC)c2)[nH]c2cc(OC)c(F)cc2c1=O
[Q] COc1cc2[nH]c(-c3cccc(Oc4ccccc4)c3)c(C(=O)OCCO)c(=O)c2cc1F
Req: When P and Q are compared, which has the higher number for permeability? Indicate your choice by writing its label.
Resp: Q
(Q: 620 ×10⁻⁶ cm/s, P: 230 ×10⁻⁶ cm/s)

---

- Test system: Liver
- EXPERIMENTAL_DETAILS: Intrinsic clearance in CD1 mouse liver microsomes after 0.5 to 4 hrs by UPLC-MS analysis
- Assay type: ADME, Microsome
REPORTED_PROPERTY: Intrinsic clearance (CLint) (µL/min/mg)

[1] CCOC(=O)c1c(-c2cc(F)cc(OC)c2)[nH]c2cc(OC)c(F)cc2c1=O
[2] CCOC(=O)c1c(-c2cccc(Cl)c2)[nH]c2cc(OC)c(F)cc2c1=O
Req: Higher Intrinsic clearance (CLint) between 1 and 2 ? Give the chosen item's label as your response.
Resp: 1
(1: 6.7 µL/min/mg, 2: 4 µL/min/mg)

---

- EXPERIMENTAL_DETAILS: AUC in CD1 mouse at 200 mg/kg, po administered as single dose
- Format: ADME, organism-based
- Set-up: dose 200 mg/kg, route oral
- SETTINGS: plasma
REPORTED_PROPERTY: AUC(0-inf) (µM·h)

Use the examples below as a reference point.
>  <ENTRY_SMILES>
CCOC(=O)c1c(-c2cccc(OCC)c2)[nH]c2cc(OC)ccc2c1=O

>  <VALUE_OBSERVED>
10

$$$$
>  <ENTRY_SMILES>
CCOC(=O)c1c(-c2cccc(-c3ccccc3)c2)[nH]c2cc(OC)ccc2c1=O

>  <VALUE_OBSERVED>
4.3

$$$$
>  <ENTRY_SMILES>
CCOC(=O)c1c(-c2cc(F)cc(OC)c2)[nH]c2cc(OC)c(F)cc2c1=O

>  <VALUE_OBSERVED>
19

$$$$

[I] CCOC(=O)c1c(-c2cccc(Cl)c2)[nH]c2cc(OC)c(F)cc2c1=O
[II] CCOC(=O)c1c(-c2cccc(Oc3ccccc3)c2)[nH]c2cc(OC)ccc2c1=O
Req: Which gives the smaller AUC(0-inf) number: I or II ? Pick one and reply with its label.
Resp: II
(II: 1 µM·h, I: 280 µM·h)

---

- EXPERIMENTAL_DETAILS: AUC in CD1 mouse at 30 mg/kg, po administered as single dose
- Assay type: ADME, organism-based
- Parameters: dose 30 mg/kg, route oral
- SETTINGS: plasma
REPORTED_PROPERTY: AUC(0-inf) (µM·h)

>  <ENTRY_SMILES>
CCOC(=O)c1c(-c2cccc(OCC)c2)[nH]c2cc(OC)ccc2c1=O

>  <VALUE_OBSERVED>
5.1

$$$$
>  <ENTRY_SMILES>
CCOC(=O)c1c(-c2cccc(OC)c2)[nH]c2cc(OC)ccc2c1=O

>  <VALUE_OBSERVED>
8

$$$$
>  <ENTRY_SMILES>
CCCOc1cccc(-c2[nH]c3cc(OC)ccc3c(=O)c2C(=O)OCC)c1

>  <VALUE_OBSERVED>
1.6

$$$$

[I] CCOC(=O)c1c(-c2cccc(-c3ccccc3)c2)[nH]c2cc(OC)ccc2c1=O
[II] CCOC(=O)c1c(-c2cccc(Oc3ccccc3)c2)[nH]c2cc(OC)ccc2c1=O
[III] CCOC(=O)c1c(-c2ccc3c(c2)OCO3)[nH]c2cc(OC)ccc2c1=O
Req: With regard to AUC(0-inf), arrange the entries in ascending order, please. In your reply, arrange the labels in the requested order.
Resp: II, I, III

---

- EXPERIMENTAL_DETAILS: Cmax in CD1 mouse at 30 mg/kg, po administered as single dose
- Format: ADME, organism-based
- Design: dose 30 mg/kg, route oral
- SETTINGS: in vivo
REPORTED_PROPERTY: Cmax (nM)

# annotated cases, reported Cmax shown
>  <ENTRY_SMILES>
CCCOc1cccc(-c2[nH]c3cc(OC)ccc3c(=O)c2C(=O)OCC)c1

>  <Cmax / nM>
300

$$$$
>  <ENTRY_SMILES>
CCOC(=O)c1c(-c2ccc3c(c2)OCO3)[nH]c2cc(OC)ccc2c1=O

>  <Cmax / nM>
1500

$$$$

[P] CCOC(=O)c1c(-c2cccc(Oc3ccccc3)c2)[nH]c2cc(OC)ccc2c1=O
[Q] CCOC(=O)c1c(-c2cccc(OCC)c2)[nH]c2cc(OC)ccc2c1=O
[R] CCOC(=O)c1c(-c2cccc(-c3ccccc3)c2)[nH]c2cc(OC)ccc2c1=O
[S] CCOC(=O)c1c(-c2cccc(OC)c2)[nH]c2cc(OC)ccc2c1=O
Req: Hey, quick one: sort these by Cmax, low to high? Quick reminder: the answer is the labels in the order asked.
Resp: P, R, Q, S
(P: 60 nM, R: 230 nM, Q: 1900 nM, S: 8000 nM)

---

- EXPERIMENTAL_DETAILS: AUC (infinity) in CD1 mouse at 50 mg/kg, po administered as single dose
- Format: ADME, organism-based
- Parameters: time infinity, dose 50 mg/kg, route oral
- SETTINGS: plasma
REPORTED_PROPERTY: AUC(0-inf) (µM·h)

[A] CCOC(=O)c1c(-c2cccc(Br)c2)[nH]c2cc(OC)c(F)cc2c1=O
[B] CCOC(=O)c1c(-c2cc(F)cc(OC)c2)[nH]c2cc(OC)c(F)cc2c1=O
[C] CCOC(=O)c1c(-c2cccc(Cl)c2)[nH]c2cc(OC)c(F)cc2c1=O
Req: Please arrange the 3 compounds above from largest to smallest AUC(0-inf) value. The response must list the labels following the requested ordering.
Resp: C, A, B
(C: 130 µM·h, A: 71 µM·h, B: 9.3 µM·h)

---

- EXPERIMENTAL_DETAILS: Cmax in CD1 mouse at 200 mg/kg, po administered as single dose
- Format: ADME, organism-based
- Set-up: dose 200 mg/kg, route oral
- SETTINGS: in vivo
REPORTED_PROPERTY: Cmax (nM)

>  <ENTRY_SMILES>
CCOC(=O)c1c(-c2cccc(Cl)c2)[nH]c2cc(OC)c(F)cc2c1=O

>  <SCALE_UNIT>
nM

>  <Cmax>
66000

$$$$

[1] CCOC(=O)c1c(-c2cccc(OCC)c2)[nH]c2cc(OC)ccc2c1=O
[2] CCOC(=O)c1c(-c2cc(F)cc(OC)c2)[nH]c2cc(OC)c(F)cc2c1=O
[3] CCOC(=O)c1c(-c2cccc(OC)c2)[nH]c2cc(OC)ccc2c1=O
[4] CCOC(=O)c1c(-c2cccc(-c3ccccc3)c2)[nH]c2cc(OC)ccc2c1=O
Req: Your job: order these 4 records by Cmax, ascending. // respond by listing labels in the order requested
Resp: 4, 2, 1, 3
(4: 430 nM, 2: 1600 nM, 1: 2400 nM, 3: 5800 nM)
